# assay: Solubility of the compound in 60% PEG400/40% water at pH 7 by HPLC analysis
# Assay type: physicochemical
measurement.kind: solubility (µg/mL)
Output spec: scalar in µg/mL, unitless text.

Reported solubility for `Cl.N#C/C(=C\c1cccc2cnccc12)c1c[nH]c2ccccc12` : what is it? 869

====

# assay: Solubility of the compound in 10% DMSO/90% water at pH 3.5 by HPLC analysis
# Type: physicochemical
measurement.kind: solubility
Answer format: value, then unit.

For the compound `Cl.N#C/C(=C\c1cccc2cnccc12)c1c[nH]c2ccccc12` , what solubility is on record? 7 µg/mL

====

# assay: Half life in pooled female rat liver microsomes at 3 uM preincubated for 5 mins followed by NADPH addition measured after 45 mins by LC-MS/MS method
# Assay type: ADME, microsome
measurement.kind: half-life at 3 µM (min)
State just the number; it will be interpreted in min.

Worked cases, answers included:
| compound.string | half-life at 3 µM / min |
| --- | --- |
| N#C/C(=C\c1cccc2cnccc12)c1c[nH]c2ccccc12 | 40.2 |
| N#C/C(=C\c1cccc2cnccc12)c1c[nH]c2ccc(Br)cc12 | 43.8 |

Now, please, on to the next compound.
Would you mind telling me what half-life at 3 µM value was observed for `COc1ccc2[nH]cc(/C(C#N)=C/c3cccc4cnccc34)c2c1` ? 33.4
